System: CSNK2A1
measured endpoint: pKd
Just the number, please; pKd means minus log10 of the concentration in mol/L.

Report pKd for Cc1cccc(-c2nc(Nc3ccc4[nH]nnc4c3)c3ccccc3n2)n1
6.11

----------
Each entry below carries its reported %Inh.
System: SRC
conditions used: concentration: 1 μM, replicates: in singlicate; n = 1
Express the result in % but write the number alone.

Reference set (5 entries):
COc1ccc(Nc2nccc(N3CCC(NC(=O)c4cccc(NC(C)=O)c4)C3)n2)cc1 (stereo not drawn) :: 0
Nc1nc(-c2ccc3c(N)n[nH]c3c2)cc(N2CCCCC2)n1 :: 15
Cl.c1ccc(Cn2ccc3cc(Nc4ncnc5ccccc45)ccc32)cc1 :: 4
CSc1nn2c(=O)cc(N3CCOCC3)nc2n1Cc1cccc(Cl)c1Cl :: 26
Nc1nc(-c2cccnc2)c(-c2ccnc3ccccc23)s1 :: 2

Query compound follows.
Report %Inh for Cl.c1ccc(Cn2ncc3cc(Nc4ncnc5ccccc45)ccc32)cc1
10

----------
System: CDK5
conditions used: concentration: 1 μM, replicates: in singlicate; n = 1
Each entry below carries its reported %Inh.
Express the result in % but write the number alone.

CSc1nn2c(=O)cc(N3CCOCC3)nc2n1Cc1cccc(Cl)c1Cl :: 9
Cc1ccc(O)cc1Nc1cc(C(F)(F)F)nc2ccc(-c3ccncc3)cc12 :: 0
CN1c2ccc(-c3ccc(C(=O)NCCO)cc3)cc2-c2[nH]ncc2S1(=O)=O :: 0
Cl.O=S(=O)(c1cccc(F)c1)c1ccc(Nc2ncnc3cc(Br)sc23)cc1Cl :: 0

Query compound follows.
Report %Inh for Cc1cccc(-c2nc(Nc3ccc4[nH]nnc4c3)c3ccccc3n2)n1
0

----------
Quick note: these are Kd numbers for system: EPHA3

Reference set (2 entries):
CCn1c(-c2ccncc2)nc2cnccc21 :: > 10 µM
Cl.Cn1ccc(-c2cccc(Nc3ccnc4cc(-c5nccs5)ccc34)c2)n1 :: > 10 µM

Query molecule follows.
Specify the recorded Kd for O=c1cc(N2CCOCC2)nc2n(Cc3cccc(Cl)c3)ccn12 , system: EPHA3.
> 10 µM

----------
Each entry below carries its reported %Inh.
System: CSNK1A1L
conditions used: concentration: 1 μM, replicates: in singlicate; n = 1
Give the figure together with its unit, number first.

Reference set (10 entries):
CC(C)N1CCC(n2cnc(-c3ccc(F)cc3)c2-c2ccnc(N)n2)CC1 [SB-223132] :: 31%
c1ccc(-c2ccc3c(-c4ccnc(Nc5ccc6c(c5)OCCO6)n4)cnn3n2)cc1 [GW818941] :: 0%
Clc1cccc(-c2nc(Nc3ccncc3)c3ccccc3n2)c1 [GW873004] :: 7%
Cn1cc(-c2ccc3c(c2)CCN3C(=O)Cc2cccc(C(F)(F)F)c2)c2c(N)ncnc21 [GSK2606414] :: 14%
OCCOCCn1ccc2ncnc(Nc3ccc(Oc4cccc(Cl)c4)c(Cl)c3)c21 :: 0%
COc1ccc(NC(=O)c2ccc(-c3cc(-c4nnc(C)o4)ccc3C)cc2)cc1 [GW595885] :: 5%
Fc1ccc(-c2ncn(CCCNCc3ccccc3)c2-c2ccncc2)cc1 :: 22%
COC(=O)c1c(-c2ccccc2)c2cc(Cl)ccc2c(=O)n1Cc1ccc(S(C)(=O)=O)cc1 :: 0%
CCC(CC)(CC)n1cnc2c(N)ncnc21 [SKF-97620] :: 1%
O=C(Nc1n[nH]c2nc(-c3ccco3)c(Br)cc12)c1ccc(CN2CCCC2)cc1.O=C(O)[C@H](O)[C@@H](O)C(=O)O [SB-742352] :: 0%

Report %Inh for FC(F)(F)c1ccc(-c2nn3ncccc3c2-c2ccnc(Nc3cccc(C(F)(F)F)c3)n2)cc1 [GW828205]
5%

Report %Inh for Fc1ccc(Nc2nccc(-c3c(-c4ccc(Cl)cc4)nn4ncccc34)n2)cc1F [GW829058]
3%

Report %Inh for Nc1n[nH]c2nnc(-c3ccccc3)cc12 [SB-517389]
10%

----------
Tested on: EPHA7
conditions used: concentration: 1 μM, replicates: in singlicate; n = 1
measured endpoint: %Inh
Give the figure together with its unit, number first.

Reference set (3 entries):
Cl.O=S(=O)(c1cccc(F)c1)c1ccc(Nc2ncnc3cc(Br)sc23)cc1Cl :: 2%
Nc1nc(-c2ccc3c(N)n[nH]c3c2)cc(N2CCC[C@@H](C(=O)Nc3ccccc3)C2)n1.O=C(O)C(F)(F)F.O=C(O)C(F)(F)F :: 3%
O=C(CCO)NCCn1ccc2ncnc(Nc3ccc(Oc4cccc(C(F)(F)F)c4)c(Cl)c3)c21 :: 0%

Query molecule follows.
Report %Inh for Cl.Cn1ccc(-c2cccc(Nc3ccnc4cc(-c5nccs5)ccc34)c2)n1
6%

----------
Test system: TEC
conditions used: concentration: 1 μM, replicates: in singlicate; n = 1
Each entry below carries its reported %Inh.
Express the result in % but write the number alone.

Cn1ccc2ncnc(Nc3ccc(Oc4cccc(Cl)c4)c(Cl)c3)c21 :: 96.7
COc1ccc(-c2oc3ncnc(N)c3c2-c2ccc(OC)cc2)cc1 [SB-589132] :: 15
Nc1nc(-c2ccc3c(N)n[nH]c3c2)cc(N2CCC[C@@H](C(=O)Nc3ccccc3)C2)n1.O=C(O)C(F)(F)F.O=C(O)C(F)(F)F [GSK2288359] :: 0

Query compound follows.
Report %Inh for CNc1nccc(-c2c(-c3ccc(F)cc3)ncn2C2CCN(C)CC2)n1 [SB-222903]
10

----------
Tested on: TIE2
Construct: gene TEK
conditions used: concentration: 1 μM, replicates: in singlicate; n = 1
measured endpoint: %Inh (%)
Express the result in % but write the number alone.

Reference set (5 entries):
Nc1nccc2scc(-c3ccc4c(c3)CCN4C(=O)Cc3cc(F)ccc3F)c12 [GSK2587663] :: 1
Nc1nc(-c2ccccn2)c(-c2ccnc3ccccc23)s1 [GW548057] :: 0
CCc1nc(-c2cccc(N(C)S(=O)(=O)c3ccccc3)c2)c(-c2ccnc(Nc3ccc(N4CCN(C(C)=O)CC4)nc3)n2)s1 [GSK1645895] :: 18
Nc1nc(-c2ccc3c(N)n[nH]c3c2)cc(N2CCCCC2)n1 [GSK2228768] :: 0
CSc1ccc(NC2=C(c3ccccc3Cl)C(=O)NC2=O)cc1 [SB-342411] :: 0

Query molecule follows.
Report %Inh for Cl.Cl.c1ccc(-c2cc3ccncc3cc2OC2CCNCC2)cc1 [GSK1122999]
0

----------
System: LZK
Construct: gene MAP3K13
conditions used: concentration: 1 μM, replicates: in singlicate; n = 1
Label No if %Inh falls below 5%; label Yes in every other case.

CCCc1ccc(S(=O)(=O)NC2CCN(c3ccnc(Nc4ccc(OC)cc4)n3)C2)cc1 (centres unmarked) [GSK1379737] :: Yes
Fc1cccc(COc2ccc(Nc3ncnc4nn5ccccc5c34)cc2Cl)c1 [GW689066] :: Yes
CCc1nc(-c2cccc(C)c2)c(-c2ccnc(NC(=O)c3ccccc3)c2)s1 :: Yes
O=C(NCCCN1CCCC1=O)c1cnc(NCc2cc(Cl)ccc2Cl)nc1NC1CCNCC1 :: No
OCCOCCn1ccc2ncnc(Nc3ccc(Oc4cccc(Cl)c4)c(Cl)c3)c21 :: No
Cl.Cn1ccc(-c2cccc(Nc3ccnc4cc(-c5nccs5)ccc34)c2)n1 [GW525701] :: Yes

Okay, next one:
Check the entry CS(=O)(=O)CCNCc1nc(-c2ccc3ncnc(Nc4ccc(OCc5cccc(F)c5)c(Cl)c4)c3c2)cs1.Cl [GW583340] : does %Inh equal or exceed 5%?
No

----------
Tested on: MELK
conditions used: concentration: 1 μM, replicates: in singlicate; n = 1
measured endpoint: %Inh (%)
Express the result in % but write the number alone.

Reference set (4 entries):
Cl.c1ccc(Cn2ccc3cc(Nc4ncnc5ccccc45)ccc32)cc1 [GW275568] :: 9
Oc1ccc2ncnc(Nc3ccc(OCc4ccccc4)cc3)c2c1 [GI262866] :: 0
O=C(Nc1ccccc1F)NC1CCN(c2ccnc(Nc3ccc(F)cc3)n2)C1 (centres unmarked) [GSK1379722] :: 0
Clc1cc(Nc2ncnc3cc[nH]c23)ccc1OCc1ccccn1 :: 0

Query molecule follows.
Report %Inh for Fc1cccc(COc2ccc(Nc3ncnc4cc[nH]c34)cc2Cl)c1
6

----------
Each entry below carries its reported %Inh.
Tested on: PKMYT1
conditions used: concentration: 1 μM, replicates: in singlicate; n = 1
Express the result in % but write the number alone.

Reference set (4 entries):
COc1ccc(-c2nc3n(c2-c2ccncc2)CCC3)cc1 :: 0
O=C(CCO)NCCn1ccc2ncnc(Nc3ccc(Oc4cccc(C(F)(F)F)c4)c(Cl)c3)c21 :: 10
Nc1nccc2scc(-c3ccc4c(c3)CCN4C(=O)Cc3cc(F)ccc3F)c12 :: 1
C[C@H]1CC[C@@H](C(=O)Nc2ccccc2)CN1c1cc(-c2ccc3c(N)n[nH]c3c2)nc(N)n1 :: 0

Report %Inh for N#Cc1ccc(Oc2ccc(Nc3ncnc4cc[nH]c34)cc2Cl)cc1
19

Report %Inh for CC(C)N1CCC(n2cnc(-c3ccc(F)cc3)c2-c2ccnc(N)n2)CC1
0

Report %Inh for Cc1ccc(C)c(NC(=O)NCCNc2ccnc(Nc3ccc(F)cc3)n2)c1
0

Report %Inh for COC(=O)c1c(-c2ccccc2)c2cc(Cl)ccc2c(=O)n1Cc1ccc(S(C)(=O)=O)cc1
1
